Just for reference, patent EP0110298A1 is where these values come from.

I'd be grateful if you could share measured LD50 for these entries.
experiment: Acute toxicity (DL50) after single oral administration to mice; settings: mouse, in vivo, read-out: DL50 in mg/kg p.o.
Where a name gives a salt, the structure may show the parent alone.

Record CCN(CC)CCn1c2ccccc2c(=NN=C2NCCS2)c2ccccc21 , field LD50: 312 to 625 mg/kg

Record CN(C)CCCn1c2ccccc2c(=NNc2nccs2)c2ccccc21.Cl.Cl , field LD50: 312 to 625 mg/kg

Record CN1CCN(CCn2c3ccccc3c(=NNc3nccs3)c3ccccc32)CC1 [HCl] , field LD50: 625 to 1250 mg/kg

Record CC(=O)N1CCN(CCn2c3ccccc3c(=NN=C3NCCS3)c3ccccc32)CC1 , field LD50: 1250 to 2500 mg/kg

Record c1ccc2c(c1)c(=NN=C1NCCS1)c1ccccc1n2CCN1CCCC1 , field LD50: 156 to 312 mg/kg

Record c1ccc2c(c1)c(=NNc1nccs1)c1ccccc1n2CCN1CCCCC1 [HCl] , field LD50: 312 to 625 mg/kg
